Attribution: patent US8410150B2

- System: Hs578T
- EXPERIMENTAL_DETAILS: Cell growth inhibition, SRB assay
- Type: cell-based, human
- SETUP_CONDITIONS: Homo sapiens, Hs-578T; Breast Hs578T, 3% FBS
REPORTED_PROPERTY: GI50 (µM)
I only need the number, in µM, no unit after it.

Please review the following examples before continuing.
compound="CCCCCCCCCCCCc1ccc(NS(=O)(=O)N[C@H](CC(=O)O)C[N+](C)(C)C)cc1 [Example S89]" system_name=Hs578T units_of_measure=µM data_value=7.3
compound="CCCCCCCCc1ccc(NC(=O)N[C@H](CC(=O)[O-])C[N+](C)(C)C)cc1 [Example S7]" system_name=Hs578T units_of_measure=µM data_value=33

May I ask what GI50 has been recorded for CCCCCCCCCCOc1ccc(C(=O)N[C@H](CC(=O)O)C[N+](C)(C)C)cc1 [Example S63, 2,2,2-trifluoroacetate] ?
3.7

----------
- SYSTEM_NAME: human CPT1A (Homo sapiens)
- Construct: made in house; host or cells: Saccharomyces cerevisiae (pESC-trp) or cultured mammalian cells (pCDNA3.1); mitochondrial extract
- Sequence (P50416 1-773): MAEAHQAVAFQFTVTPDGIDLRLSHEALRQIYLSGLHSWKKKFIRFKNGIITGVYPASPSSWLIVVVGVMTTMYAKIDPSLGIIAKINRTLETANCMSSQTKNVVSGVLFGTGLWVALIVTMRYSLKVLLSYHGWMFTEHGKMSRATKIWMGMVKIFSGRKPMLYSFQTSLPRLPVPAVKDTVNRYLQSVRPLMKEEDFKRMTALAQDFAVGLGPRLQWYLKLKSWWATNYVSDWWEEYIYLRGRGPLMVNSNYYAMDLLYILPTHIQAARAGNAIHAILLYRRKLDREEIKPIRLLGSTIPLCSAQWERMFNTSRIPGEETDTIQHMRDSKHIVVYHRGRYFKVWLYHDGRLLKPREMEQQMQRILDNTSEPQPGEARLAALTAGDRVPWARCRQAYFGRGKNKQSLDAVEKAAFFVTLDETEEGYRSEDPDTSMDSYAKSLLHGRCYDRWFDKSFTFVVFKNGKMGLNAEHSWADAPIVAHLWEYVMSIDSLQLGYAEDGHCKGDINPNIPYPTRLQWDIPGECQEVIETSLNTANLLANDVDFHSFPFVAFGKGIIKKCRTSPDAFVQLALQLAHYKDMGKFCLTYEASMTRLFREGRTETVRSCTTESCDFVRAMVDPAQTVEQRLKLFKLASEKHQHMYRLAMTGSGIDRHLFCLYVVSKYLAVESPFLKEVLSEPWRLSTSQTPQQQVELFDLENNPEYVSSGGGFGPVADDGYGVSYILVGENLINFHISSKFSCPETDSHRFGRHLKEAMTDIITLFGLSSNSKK
- EXPERIMENTAL_DETAILS: Human CPT1A LC/MS assay
- Type: biochemical
- SETUP_CONDITIONS: human CPT1A LC/MS assay, dose response format
Quick list: IC50 per entry.

Please review the following examples before continuing.
compound=C[N+](C)(C)C[C@@H](CC(=O)[O-])NC(=O)c1ccc(C#Cc2ccccc2)o1 system_name="human CPT1A (Homo sapiens)" reported_property=IC50 data_value="10 to 100 µM"
compound=Cc1nc(-c2ccccc2)sc1NC(=O)N[C@H](CC(=O)[O-])C[N+](C)(C)C system_name="human CPT1A (Homo sapiens)" reported_property=IC50 data_value="1000 to 2500 µM"
compound="Cn1nc(C(F)(F)F)cc1-c1ccc(S(=O)(=O)N[C@H](CC(=O)O)C[N+](C)(C)C)s1 [Example S72, 2,2,2-trifluoroacetate]" system_name="human CPT1A (Homo sapiens)" reported_property=IC50 data_value="100 to 1000 µM"

May I ask what IC50 has been recorded for CCCCCc1ccc(C#Cc2ccc(S(=O)(=O)N[C@H](CC(=O)O)C[N+](C)(C)C)s2)cc1 [Example S82, 2,2,2-trifluoroacetate] ?
1 to 10 µM

May I ask what IC50 has been recorded for C[N+](C)(C)C[C@@H](CC(=O)[O-])NC(=O)Nc1ccccc1-c1ccccc1 ?
1000 to 2500 µM

May I ask what IC50 has been recorded for CCCCCCCCc1ccc(NC(=O)N[C@H](CC(=O)[O-])C[N+](C)(C)C)cc1 ?
1 to 10 µM

May I ask what IC50 has been recorded for CCCCCCOc1cccc(C#Cc2ccc(C(=O)N[C@H](CC(=O)[O-])C[N+](C)(C)C)o2)c1 ?
1 to 10 µM
